Each entry below carries its recorded pIC50.
# TESTED_TARGET: HLA-DR DRB1*0701 (DR7) (Homo sapiens, UniProt P01903+P01911, A100R/A102G/A103Q/D57E/D86V/E43K/F76Y/K127E/L162R/M171V/P40G/Q125H/Q99D/R33Q/R42Y/R54Q/S133A/S66F/T210M/V115G/Y107V/Y59L/Y89S)
# TEST_NAME: biochemical
# Format: binding
In simple prose, pIC50 is minus the logarithm base ten of a concentration in moles per litre.

These recorded examples may help you get a feel for the data.
| SMILES_TEXT | pIC50 |
| --- | --- |
| CC[C@H](C)[C@H](NC(=O)[C@H](Cc1ccc(O)cc1)NC(=O)[C@@H]1CCCN1)C(=O)N[C@@H](CC(C)C)C(=O)N[C@@H](CC(C)C)C(=O)N[C@H](C(=O)N[C@@H](CO)C(=O)N[C@@H](CO)C(=O)N[C@@H](CCCCN)C(=O)N[C@H](C(=O)N[C@@H](CO)C(=O)N[C@H](C(=O)N[C@H](C(=O)N[C@@H](CCCCN)C(=O)N[C@@H](CC(=O)O)C(=O)O)C(C)C)[C@@H](C)O)C(C)C)C(C)C | 7.42 |
| CC[C@H](C)[C@H](NC(=O)[C@H](CCCCN)NC(=O)[C@H](CC(N)=O)NC(=O)[C@@H](NC(=O)[C@@H](NC(=O)[C@H](CC(C)C)NC(=O)[C@@H](NC(=O)[C@H](CO)NC(=O)[C@H](CC(C)C)NC(=O)[C@H](C)N)[C@@H](C)O)C(C)C)C(C)C)C(=O)N[C@@H](CCCNC(=N)N)C(=O)NCC(=O)N[C@H](C(=O)N[C@@H](Cc1ccccc1)C(=O)N[C@@H](CCCCN)C(=O)O)[C@@H](C)O | 6.40 |

Kindly consider the entry below.
## Task Give recorded pIC50. CC[C@H](C)[C@H](NC(=O)[C@H](C)NC(=O)[C@H](CCC(N)=O)NC(=O)[C@H](CCCNC(=N)N)NC(=O)[C@H](CC(C)C)NC(=O)[C@H](C)NC(=O)[C@@H](NC(=O)[C@H](Cc1c[nH]cn1)NC(=O)[C@H](Cc1c[nH]cn1)NC(=O)[C@@H]1CCCN1)[C@@H](C)O)C(=O)N[C@@H](CC(C)C)C(=O)N[C@@H](CO)C(=O)N[C@@H](Cc1c[nH]c2ccccc12)C(=O)NCC(=O)N[C@@H](CCC(=O)O)C(=O)N[C@@H](CC(C)C)C(=O)N[C@@H](CCSC)C(=O)N[C@H](C(=O)N[C@@H](CC(C)C)C(=O)N[C@@H](C)C(=O)O)[C@@H](C)O
## Result 4.84
